B1: NF2 (merlin) isoform 7, human, full length (507 aa, lacks exons 2-3 = isoform-1 residues 39-121; exon-16 C-terminus), P35240-4 (parent)
chain: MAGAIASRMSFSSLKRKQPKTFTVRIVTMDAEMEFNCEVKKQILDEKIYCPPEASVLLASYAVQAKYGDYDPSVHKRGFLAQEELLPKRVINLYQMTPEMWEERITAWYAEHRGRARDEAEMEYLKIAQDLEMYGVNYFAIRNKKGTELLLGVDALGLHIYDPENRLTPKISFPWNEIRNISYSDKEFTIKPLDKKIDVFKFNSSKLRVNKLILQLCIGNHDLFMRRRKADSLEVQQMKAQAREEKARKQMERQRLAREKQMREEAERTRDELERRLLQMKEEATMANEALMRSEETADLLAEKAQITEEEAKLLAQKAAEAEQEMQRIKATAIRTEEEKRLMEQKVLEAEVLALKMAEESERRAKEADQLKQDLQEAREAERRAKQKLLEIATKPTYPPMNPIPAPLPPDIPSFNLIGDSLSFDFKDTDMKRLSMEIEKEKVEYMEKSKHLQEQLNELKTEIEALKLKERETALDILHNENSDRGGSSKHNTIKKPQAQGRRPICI

# Variants of: B1
# procedureText: reverse yeast two-hybrid deep mutational scan (rY2H-seq): NF2 isoform 7 mutant library as bait mated with wild-type prey strains; selection on medium lacking adenine for non-interacting pairs; NextSeq paired-end sequencing; enrichment vs …
# recordedConditions: with KDM1A (lysine-specific histone demethylase 1A; the table's label AOF2 is a gene synonym of KDM1A), O60341; yeast diploids after mating (RBait_S3 x RPrey_S3), 30 °C, selection for reporter genes on NB agar; human ABL2 co-expressed as the kinase-dead K35M mutant …; HIGHER = WEAKER BINDING (the opposite of display enrichments): higher = stronger loss of interaction: reverse Y2H selects yeast in which bait and prey do NOT interact (growth without adenine), so a …; hits-only table; scale: rY2H score; numbering: uniprot, sequence starts at 1
parameterMeasured: enrichment

Solved entries:
>>> experimentalvalue("E337K")
2.29
>>> experimentalvalue("T397A")
1.66
>>> experimentalvalue("Q64L")
2.29
>>> experimentalvalue("G78K")
1.76
>>> experimentalvalue("Y161K")
3.06

(1) V352S
(2) K386T
(3) L389S
[Q] Task for the reader: rank each entry by its enrichment, from the minimum upward. Hello, could you send the labels back in the order asked? Thank you.
[A] 3, 1, 2
(3: 1.45, 1: 3.21, 2: 5.27)
